Experiment: Half life in human plasma
Assay type: ADME, cell-free
Outcome Measure: half-life
Quick note: number first, unit second.

Molecule	Outcome Measure	Result
Cc1nccn1CCOC(=O)[C@@H](C)c1ccc(CC(C)C)cc1	half-life	135 min

Query: Suppose we examine the molecule CCCSc1ccc2nc(NC(=O)OC)n(C(=O)OCC)c2c1 ; what half-life value has been reported?
Response: 7.19 min

Query: Suppose we examine the molecule CCOC(=O)[C@@H](C)c1ccc(CC(C)C)cc1 ; what half-life value has been reported?
Response: 15900 min

Query: Suppose we examine the molecule CC(C)C[C@H](NC(=O)[C@H](Cc1ccccc1)NC(=O)CNC(=O)CN1C(=O)[C@H](Cc2ccc(O)cc2)NC12CCCCC2)C(=O)O ; what half-life value has been reported?
Response: 730 min

Query: Suppose we examine the molecule CSCOC(=O)[C@@]1(O)CC[C@H]2[C@@H]3CCC4=CC(=O)C=C[C@]4(C)[C@H]3[C@@H](O)C[C@@]21C ; what half-life value has been reported?
Response: 2100 min

Query: Suppose we examine the molecule O=C(CCCCCCCCC(=O)Oc1ccc2c3c1O[C@H]1[C@@H](O)CC[C@@]4(O)[C@@H](C2)N(CC2CCC2)CC[C@]314)Oc1ccc2c3c1O[C@H]1[C@@H](O)CC[C@@]4(O)[C@@H](C2)N(CC2CCC2)CC[C@]314 [DINALBUPHINE SEBACATE] ; what half-life value has been reported?
Response: 5.4 min
